Known MFI of a selection of binders
ASSAYED_SYSTEM: T1, human TMEM106B (human, UniProt Q9NUM4 2-274)
T1 construct: Full-length, on transiently transfected HEK293 cells, or natively expressed on HeLa, U251 and A549 cells; also called huTMEM106B; huTMEM
ASSAY_PROCEDURE: FACS HEK+huTMEM, 1.0 ug/ml
VALUE_KIND: MFI

BINDER	RESULT
anti-TMEM106B antibody TM-23 (antibody, V domains shown) VH: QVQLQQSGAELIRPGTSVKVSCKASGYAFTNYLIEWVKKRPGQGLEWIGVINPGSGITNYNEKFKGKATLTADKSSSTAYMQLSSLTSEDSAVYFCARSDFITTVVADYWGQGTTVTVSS VL: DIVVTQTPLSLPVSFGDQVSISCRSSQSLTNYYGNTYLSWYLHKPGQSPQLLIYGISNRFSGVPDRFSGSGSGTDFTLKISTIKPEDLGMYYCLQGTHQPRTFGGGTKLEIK	3900
anti-TMEM106B antibody TM-31 (antibody, V domains shown, mouse IgG from hybridoma) VH: QVQLQQSGAELAKPGASVKVSCKASGYTFISYWMNWVKQRPGQGLEWIGYINPTSGYTRYNQKFKDKATLTADKSSSTAYMQLSSLTYEDSAVYYCARSPPTVVLIGYFDYWGQGTTLTVSS VL: DIKMTQSPSSMYASLGERVTFTCKASQDINSYLSWFQQKPGKSPKTLIYRGNGLVDGVPSRFSGSGSGQDYSLTISSLEYEDMGIYYCLQYDEFPFTFASGTKLEIK	3680
